Measured on: Recombinant human IL-1β (BioLegend 579404) (human, UniProt P01584 117-269)
Procedure summary: cell-based or functional assay
Starred links: 1 amine or outer side, 2 acyl side, 3 side chain; linkers in the order of their positions; H or OH if unused. Non-standard residues stand in square brackets, D forms with d. Phe4Pyrim = (S)-2-amino-3-(4-(pyrimidin-5-yl)phenyl)propanoic acid, O=C([C@H](Cc1ccc(-c2cncnc2)cc1)N[*:1])[*:2]; ThrOMe = (2S,3R)-2-amino-3-methoxy-butanoic acid, CO[C@H](C)[C@H](N[*:1])C(=O)[*:2]; dPro(4R-(4-pyridylmethyl)) = O=C(O)[C@H]1C[C@@H](Cc2ccncc2)CN1; Trp(βS-Me,4-F) = C[C@@H](c1c[nH]c2cccc(F)c12)[C@H](N)C(=O)O; Bip(4'-COOH) = N[C@@H](Cc1ccc(-c2ccc(C(=O)O)cc2)cc1)C(=O)O; dPro(3S-(4-F-Bn)) = O=C(O)[C@@H]1NCC[C@@H]1Cc1ccc(F)cc1; Ala(pyrimidin-5-yl) = N[C@@H](Cc1cncnc1)C(=O)O; Phe(4-COOH) = N[C@@H](Cc1ccc(C(=O)O)cc1)C(=O)O; Bip = N[C@@H](Cc1ccc(-c2ccccc2)cc1)C(=O)O; Pro(cis-4-F) = O=C(O)[C@@H]1C[C@H](F)CN1; Dap(CONH2) = NC(=O)NC[C@H](N)C(=O)O; d(αMeD) = C[C@@](N)(CC(=O)O)C(=O)O; 4Pal = N[C@@H](Cc1ccncc1)C(=O)O; dDab = NCC[C@@H](N)C(=O)O; Dab = NCC[C@H](N)C(=O)O; Aib = CC(C)(N)C(=O)O
Value type: MRC5 IC50 (nM)

a = cyclo([Bip][4Pal][Phe(4-COOH)]G[Pro(cis-4-F)][Trp(βS-Me,4-F)][Aib]SW[d(αMeD)][dDab]Q[Dap(CONH2)]G[dPro(4R-(4-pyridylmethyl))]) (ring closure inferred) [SEQ ID NO 247]
b = cyclo([Phe4Pyrim][4Pal][Phe(4-COOH)]G[Pro(cis-4-F)][Trp(βS-Me,4-F)][Aib]SW[d(αMeD)][Ala(pyrimidin-5-yl)]Q[Dab]G[dPro(3S-(4-F-Bn))]) (ring closure inferred) [SEQ ID NO 282]
stdin: Kindly identify which of a and b has the larger recorded MRC5 IC50 value. State the label of the item chosen.
stdout: a
(a: 0.03 nM, b: 0.014 nM)

1 = cyclo([Bip][4Pal][Phe(4-COOH)]G[Pro(cis-4-F)][Trp(βS-Me,4-F)][Aib]SW[Aib][dD]Q[Dab]G[dPro(4R-(4-pyridylmethyl))]) (ring closure inferred) [SEQ ID NO 265]
2 = cyclo([Bip(4'-COOH)][4Pal][Phe(4-COOH)]G[Pro(cis-4-F)][Trp(βS-Me,4-F)][Aib]SW[d(αMeD)][ThrOMe]Q[Dab]G[dPro(4R-(4-pyridylmethyl))]) (ring closure inferred) [SEQ ID NO 255]
stdin: Please state the entry with greater MRC5 IC50 among 1 and 2 . Answer = label.
stdout: 1
(1: 0.022 nM, 2: 0.011 nM)
